Biological target: GST-tagged KRAS-G12D (2-169) (Homo sapiens, UniProt P01116, G12D)
Sequence (P01116 2-169 isoform P01116-2 G12D): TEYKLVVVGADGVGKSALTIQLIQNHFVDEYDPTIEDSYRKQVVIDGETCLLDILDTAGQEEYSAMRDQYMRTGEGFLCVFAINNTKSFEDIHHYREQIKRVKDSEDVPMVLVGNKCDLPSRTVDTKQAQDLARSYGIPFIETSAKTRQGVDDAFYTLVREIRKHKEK
Test: Nucleotide exchange assay (NEA), SOS-mediated, HTRF, KRAS G12D
Format: biochemical
Details: Table 4; IC50 extracted at 30 min; 20 nM SOScat; read-out: NEA G12D IC50
Items are presented alongside their recorded IC50.

Reference set, count: 2
N#CCC12CC1CN(c1nc(OC[C@@]34CCCN3C[C@H](F)C4)nc(N3CC4(CCc5sc(N)c(C#N)c54)C3)n1)C2 (stereo partly drawn) [Compound 42]
1 to 20 µM
C[C@@]1(O)CCCN(c2nc(OCC3(CN4CCOCC4)CC3)nc(N3CC4(C3)c3c(sc(N)c3C#N)C[C@H]4F)n2)C1 [Compound 70]
< 0.01 µM

Please look at the following compound next.
Endpoint output: IC50 of CN(Cc1cnsc1)c1nc(OC[C@@]23CCCN2C[C@H](F)C3)nc(N2CC3(CCc4sc(N)c(C#N)c43)C2)n1 [Compound 147] . Value?
0.1 to 1 µM
